Reference for the values: patent US20250042994A1

koff overview
Target: T1, Human CD19-his protein (human, UniProt P15391 20-291)
T1 construct: bought protein; also called recombinant human CD19-His; CD19 full-length protein; not shown: His tag
T1 sequence (looked up): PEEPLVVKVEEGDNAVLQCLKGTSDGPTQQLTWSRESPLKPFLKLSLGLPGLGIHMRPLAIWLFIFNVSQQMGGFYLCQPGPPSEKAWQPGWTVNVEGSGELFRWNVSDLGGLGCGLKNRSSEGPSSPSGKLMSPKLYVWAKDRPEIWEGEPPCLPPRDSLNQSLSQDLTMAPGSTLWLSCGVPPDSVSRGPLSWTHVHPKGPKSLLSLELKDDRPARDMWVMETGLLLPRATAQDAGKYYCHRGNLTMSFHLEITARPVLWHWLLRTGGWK
Experiment: SPR Biacore, method of example 7.1, human CD19-His
Give just the number in s⁻¹; leave the unit off.

The following binders have reported results that may help.
- binder: "F3.121.4-L1H1 (antibody, mouse IgG1, kappa, V domains shown, humanized antibody of F3.121.4, VL1+VH1, murine IgG1 constant regions) VH: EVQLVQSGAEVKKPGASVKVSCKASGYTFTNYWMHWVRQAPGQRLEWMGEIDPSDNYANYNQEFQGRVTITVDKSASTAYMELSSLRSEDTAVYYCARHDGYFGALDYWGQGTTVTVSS VL: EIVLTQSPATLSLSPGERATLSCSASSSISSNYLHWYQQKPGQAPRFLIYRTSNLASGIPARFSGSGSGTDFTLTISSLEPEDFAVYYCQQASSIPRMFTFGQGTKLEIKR"
  measured-quantity: "koff"
  value-units: "s⁻¹"
  observed-result: "3.45e-06"
- binder: "F3.121.4-L3H2 (antibody, mouse IgG1, kappa, V domains shown, humanized antibody of F3.121.4, VL3+VH2, murine IgG1 constant regions) VH: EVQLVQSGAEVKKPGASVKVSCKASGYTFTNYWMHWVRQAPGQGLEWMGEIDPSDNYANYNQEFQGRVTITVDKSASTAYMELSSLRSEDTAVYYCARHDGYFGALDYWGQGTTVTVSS VL: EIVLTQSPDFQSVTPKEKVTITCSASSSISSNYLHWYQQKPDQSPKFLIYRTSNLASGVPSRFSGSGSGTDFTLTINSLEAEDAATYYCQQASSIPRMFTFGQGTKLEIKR"
  measured-quantity: "koff"
  value-units: "s⁻¹"
  observed-result: "5.65e-09"
- binder: "F3.121.4 (antibody, human IgG1, V domains shown, human-murine chimeric antibody, human IgG1 constant; also called chimeric antibody F3.121.4) VH: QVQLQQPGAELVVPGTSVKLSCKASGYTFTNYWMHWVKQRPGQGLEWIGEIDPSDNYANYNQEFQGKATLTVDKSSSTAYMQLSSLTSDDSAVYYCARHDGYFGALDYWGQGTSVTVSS VL: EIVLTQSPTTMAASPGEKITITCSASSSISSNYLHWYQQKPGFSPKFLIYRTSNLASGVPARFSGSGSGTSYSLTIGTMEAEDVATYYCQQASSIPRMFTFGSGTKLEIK"
  measured-quantity: "koff"
  value-units: "s⁻¹"
  observed-result: 0.000375
- binder: "F3.121.4-L2H1 (antibody, mouse IgG1, kappa, V domains shown, humanized antibody of F3.121.4, VL2+VH1, murine IgG1 constant regions) VH: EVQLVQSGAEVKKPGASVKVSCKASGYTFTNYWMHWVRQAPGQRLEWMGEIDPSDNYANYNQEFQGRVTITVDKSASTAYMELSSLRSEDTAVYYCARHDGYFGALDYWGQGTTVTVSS VL: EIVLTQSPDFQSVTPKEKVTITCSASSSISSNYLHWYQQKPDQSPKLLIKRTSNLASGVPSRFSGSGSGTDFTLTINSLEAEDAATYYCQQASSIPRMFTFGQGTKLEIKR"
  measured-quantity: "koff"
  value-units: "s⁻¹"
  observed-result: 0.000186

Okay, next one:
Prompt line: What does the data say about its koff? Entry: F3.121.4-L1H2 (antibody, mouse IgG1, kappa, V domains shown, humanized antibody of F3.121.4, VL1+VH2, murine IgG1 constant regions) VH: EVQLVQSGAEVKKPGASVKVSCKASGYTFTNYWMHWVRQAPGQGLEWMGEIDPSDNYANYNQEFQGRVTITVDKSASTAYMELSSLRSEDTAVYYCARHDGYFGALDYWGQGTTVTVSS VL: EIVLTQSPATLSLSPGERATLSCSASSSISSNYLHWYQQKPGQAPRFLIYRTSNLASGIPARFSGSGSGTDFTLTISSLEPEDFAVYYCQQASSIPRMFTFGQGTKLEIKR
Response line: 6.84e-08
